pIC50: −log10 of the molar value.
Please find below pIC50 data on DGKα (Homo sapiens, UniProt P23743) compiled from the literature.

* CC(c1ccc2nccnc2c1)N1CCN(c2cc(=O)n(C)c3cn(CC#N)nc23)C[C@@H]1C (stereo partly shown) | < 5.00
* CCCn1c(C(C)N2C[C@H](CC)N(c3cc(=O)n(C)c4cn(CC#N)nc34)C[C@H]2CC)nc2ccccc21 (stereo partly shown) | < 5.00
* CC(c1ccc(F)cc1C(F)(F)F)N1C[C@H](C)N(c2cc(=O)n(C)c3[nH]c(CC#N)nc23)C[C@H]1C (stereo partly shown) | < 5.00

We next turn to a different compound, shown below.
Task: Give pIC50 (DGKα (Homo sapiens, UniProt P23743)) of the following compound: N[C@H]1CS(=O)(=O)c2ccc(-c3nnc(N4CCOC(C(F)(F)F)C4)o3)cc2N(Cc2ccc(-c3ccc(C(F)(F)F)cc3)cc2)C1=O (stereo partly shown)
Result: < 4.20
